These measurements were taken from patent US12110527B2.

glucose consumption rate: recorded values
Test system: S. bombicola Δcyp52M1Δfao1 strain
test.name: Shake flask cultivation fed with different primary fatty alcohols: follow-up of growth (CFU) and glucose consumption
Type: cell-based, Starmerella bombicola
protocol.conditions: alcohol fed at 1.8 (w/v) % after 48 h of cultivation; shake flask
endpoint: glucose consumption rate (g/L·h)

- given.smiles: "CCCCCCCCCCCCCCCCO"
  quantitative.result: 0.38
- given.smiles: "CCCCCCCC/C=C\\CCCCCCCCO"
  quantitative.result: 0.48
- given.smiles: "CCCCCCCCCCCCCCCCCCO"
  quantitative.result: 0.38
- given.smiles: "CCCCCCCCCCCCCCO"
  quantitative.result: 0.48
